Recorded measurements of Hepatotoxicity (acute), one per entry
# test_summary: Highest frequency of acute liver toxicity observed during clinical trials, expressed as a percentage. [column '% AIGUE' in source]
# experimental_parameters: human, Liver
readout_type: Hepatotoxicity (acute) (%)

[
  {
    "compound": "Clc1ccc(C(Cn2ccnc2)OCc2ccsc2Cl)c(Cl)c1 (centres undefined) [TIOCONAZOLE]",
    "endpoint_value": 0
  },
  {
    "compound": "CCCSc1ccc2nc(NC(=O)OC)[nH]c2c1 [ALBENDAZOLE]",
    "endpoint_value": 5
  },
  {
    "compound": "CCN(CC)CCNC(=O)c1ccc(N)cc1 [PROCAINAMIDE]",
    "endpoint_value": 0
  },
  {
    "compound": "CN(C)CCCN1c2ccccc2Sc2ccc(Cl)cc21 [CHLORPROMAZINE]",
    "endpoint_value": 5.3
  },
  {
    "compound": "Cl[C@H]1[C@H](Cl)[C@@H](Cl)[C@@H](Cl)[C@H](Cl)[C@H]1Cl [LINDANE]",
    "endpoint_value": 0
  },
  {
    "compound": "CC1(C)S[C@@H]2[C@H](NC(=O)[C@H](NC(=O)N3CCN(S(C)(=O)=O)C3=O)c3ccccc3)C(=O)N2[C@H]1C(=O)O [MEZLOCILLIN]",
    "endpoint_value": 0
  },
  {
    "compound": "CN(C)CCOC(c1ccccc1)c1ccccc1 [DIPHENHYDRAMINE]",
    "endpoint_value": 0
  },
  {
    "compound": "CCCCc1oc2ccccc2c1C(=O)c1cc(I)c(OCCN(CC)CC)c(I)c1 [AMIODARONE]",
    "endpoint_value": 6
  },
  {
    "compound": "N[C@@H]1C[C@H]1c1ccccc1.N[C@H]1C[C@@H]1c1ccccc1 [TRANYLCYPROMINE]",
    "endpoint_value": 0
  },
  {
    "compound": "O=C(O)COCCN1CCN(C(c2ccccc2)c2ccc(Cl)cc2)CC1 (centres undefined) [CETIRIZINE]",
    "endpoint_value": 0
  },
  {
    "compound": "Sc1ncnc2nc[nH]c12 [MERCAPTOPURINE ANHYDROUS]",
    "endpoint_value": 4.9
  },
  {
    "compound": "CSCC[C@H](N)C(=O)O [METHIONINE]",
    "endpoint_value": 0
  },
  {
    "compound": "CC1=C(/C=C/C(C)=C/C=C/C(C)=C/CO)C(C)(C)CCC1.O=C(O)Cc1cc(I)c(Oc2ccc(O)c(I)c2)c(I)c1",
    "endpoint_value": 0
  },
  {
    "compound": "NCCCC(O)(P(=O)(O)O)P(=O)(O)O [ALENDRONIC ACID]",
    "endpoint_value": 0
  },
  {
    "compound": "CSc1ccc2c(c1)N(CCC1CCCCN1C)c1ccccc1S2 (centres undefined) [THIORIDAZINE]",
    "endpoint_value": 0
  },
  {
    "compound": "CCO.CN1CCC[C@H]1c1cccnc1",
    "endpoint_value": 0
  },
  {
    "compound": "O=C(O)C[C@H](O)C[C@H](O)/C=C/c1c(C2CC2)nc2ccccc2c1-c1ccc(F)cc1 [PITAVASTATIN]",
    "endpoint_value": 0
  },
  {
    "compound": "Cc1ccc(-c2cc(C(F)(F)F)nn2-c2ccc(S(N)(=O)=O)cc2)cc1 [CELECOXIB]",
    "endpoint_value": 0
  },
  {
    "compound": "Nc1ccn([C@H]2CC[C@@H](CO)O2)c(=O)n1 [ZALCITABINE]",
    "endpoint_value": 8.5
  }
]

====

# test_summary: Highest frequency of acute liver toxicity observed during clinical trials, expressed as a percentage. [column '% AIGUE' in source]
# experimental_parameters: human
readout_type: Hepatotoxicity (acute)

[
  {
    "compound": "CO[C@@]1(NC(=O)Cc2cccs2)C(=O)N2C(C(=O)O)=C(COC(N)=O)CS[C@@H]21",
    "endpoint_value": "0%"
  },
  {
    "compound": "CNC(=C[N+](=O)[O-])NCCSCc1ccc(CN(C)C)o1",
    "endpoint_value": "0%"
  },
  {
    "compound": "CNC1CCCN(c2c(F)cc3c(=O)c(C(=O)O)cn(C4CC4)c3c2OC)C1 (configuration not stated)",
    "endpoint_value": "0%"
  },
  {
    "compound": "NNc1nnc(NN)c2ccccc12 [DIHYDRALAZINE]",
    "endpoint_value": "0.1%"
  },
  {
    "compound": "CN(C)CCOc1ccc(/C(=C(/CCCl)c2ccccc2)c2ccccc2)cc1",
    "endpoint_value": "6.1%"
  },
  {
    "compound": "CC1(C)[C@@H](OC(=O)CCC(=O)O)CC[C@]2(C)[C@H]3C(=O)C=C4[C@@H]5C[C@@](C)(C(=O)O)CC[C@]5(C)CC[C@@]4(C)[C@]3(C)CC[C@@H]12",
    "endpoint_value": "0%"
  },
  {
    "compound": "CN(C)[C@@H]1C(O)=C(C(=O)NCNCCCC[C@H](N)C(=O)O)C(=O)[C@@]2(O)C(O)=C3C(=O)c4c(O)cccc4[C@@](C)(O)[C@H]3C[C@@H]12",
    "endpoint_value": "0%"
  },
  {
    "compound": "Cc1ncc(-c2csc(N=C(N)N)n2)[nH]1",
    "endpoint_value": "8%"
  },
  {
    "compound": "CC(C)COCC(CN(Cc1ccccc1)c1ccccc1)N1CCCC1 (configuration not stated)",
    "endpoint_value": "0%"
  },
  {
    "compound": "CC(=O)CC(c1ccccc1)c1c(O)c2ccccc2oc1=O (configuration not stated)",
    "endpoint_value": "0%"
  },
  {
    "compound": "CO[C@H]1[C@@H](O)[C@H](N)[C@@H](O[C@H]2O[C@H]([C@H](C)N)CC[C@H]2N)[C@H](O)[C@@H]1N(C)C(=O)CN",
    "endpoint_value": "0%"
  },
  {
    "compound": "CC1CCCC(C)N1CCCC(O)(c1ccccc1)c1ccccn1 (configuration not stated)",
    "endpoint_value": "0%"
  },
  {
    "compound": "CC1CCN(CCCC(=O)c2ccc(F)cc2)CC1",
    "endpoint_value": "0%"
  },
  {
    "compound": "CN1[C@@H]2CC[C@H]1C[C@@H](OC(=O)c1c[nH]c3ccccc13)C2",
    "endpoint_value": "4.5%"
  },
  {
    "compound": "Cc1[nH]cnc1CSCCNc1ncc(Cc2ccc3c(c2)OCO3)c(=O)[nH]1",
    "endpoint_value": "0.1%"
  },
  {
    "compound": "Cc1ccc2c(c1)C(N1CCN(C)CC1)=Nc1ccccc1S2",
    "endpoint_value": "0%"
  },
  {
    "compound": "NC(=O)c1csc([C@@H]2O[C@H](CO)[C@@H](O)[C@H]2O)n1",
    "endpoint_value": "0%"
  },
  {
    "compound": "CCC/C=C/C=C/C(=O)O[C@H]1/C(=C/C(=O)OC)C[C@H]2C[C@H]([C@@H](C)O)OC(=O)C[C@H](O)C[C@@H]3C[C@H](OC(C)=O)C(C)(C)[C@](O)(C[C@@H]4C/C(=C/C(=O)OC)C[C@H](/C=C/C(C)(C)[C@]1(O)O2)O4)O3",
    "endpoint_value": "8.3%"
  },
  {
    "compound": "COc1ccc(-n2nc(CCC(=O)N(C)O)cc2-c2ccc(Cl)cc2)cc1",
    "endpoint_value": "0%"
  },
  {
    "compound": "FC(F)OC(Cl)C(F)(F)F (configuration not stated)",
    "endpoint_value": "0%"
  },
  {
    "compound": "C[C@]12CC[C@@H]3c4ccc(OC(=O)N(CCCl)CCCl)cc4CC[C@H]3[C@@H]1CC[C@@H]2O",
    "endpoint_value": "2%"
  },
  {
    "compound": "C[S+](CC[C@H](N)C(=O)[O-])C[C@H]1O[C@@H](n2cnc3c(N)ncnc32)[C@H](O)[C@@H]1O (some centres not stated)",
    "endpoint_value": "0%"
  },
  {
    "compound": "S=P(N1CC1)(N1CC1)N1CC1",
    "endpoint_value": "5.3%"
  },
  {
    "compound": "CO[C@@H]1C[C@](C)(O)Cc2cc3c(c(O)c21)C(=O)c1c(O)cc2c(c1C3=O)O[C@@H]1O[C@@]2(C)[C@H](O)[C@@H](N(C)C)[C@@H]1O",
    "endpoint_value": "0%"
  },
  {
    "compound": "[Li]",
    "endpoint_value": "0%"
  },
  {
    "compound": "C[C@H]1[C@H](OC(=O)CCC(=O)O)O[C@@H]2O[C@@]3(C)CC[C@H]4[C@H](C)CC[C@@H]1[C@@]24OO3 [ARTESUNATE]",
    "endpoint_value": "6.7%"
  },
  {
    "compound": "C[C@]12CCC(=O)C=C1CC[C@@H]1[C@@H]2C(=O)C[C@@]2(C)[C@H]1CC[C@]2(O)C(=O)CO",
    "endpoint_value": "0%"
  },
  {
    "compound": "O=C1Nc2ccc(Cl)cc2[C@@](C#CC2CC2)(C(F)(F)F)O1",
    "endpoint_value": "10.9%"
  },
  {
    "compound": "CCN(CC)CCCC(C)Nc1c2ccc(Cl)cc2nc2ccc(OC)cc12 (configuration not stated)",
    "endpoint_value": "0.1%"
  },
  {
    "compound": "N=C(N)c1ccc(/C=C/c2ccc(C(=N)N)cc2O)cc1 [HYDROXYSTILBAMIDINE]",
    "endpoint_value": "0%"
  },
  {
    "compound": "O=C(CCCCC(=O)Nc1c(I)cc(I)c(C(=O)O)c1I)Nc1c(I)cc(I)c(C(=O)O)c1I [IODIPAMIDE]",
    "endpoint_value": "0%"
  },
  {
    "compound": "CC(O)(P(=O)(O)O)P(=O)(O)O",
    "endpoint_value": "0%"
  }
]
